Would you kindly list composite z-score for each of these molecules?
test: binders from COS7 lysate, DM2A8 probe, primary screen, torsin A project, cell lysate, small-molecule microarray, fluorescence 635/667 (AID 1065); conditions: higher = more signal, COS7 lysate expressing mutant human TOR1A
One number for each entry.

As a guide, the following entries are already answered.
Which measured composite z-score value corresponds to CO[C@H]1O[C@H](CO)[C@@H](OC(=O)Nc2cccc(F)c2)[C@H](OC(=O)Nc2ccccc2)[C@@H]1OC(=O)Nc1ccccc1 ?
0.995

Which measured composite z-score value corresponds to CC(C)[Si]1(C(C)C)O[C@@H](c2ccccc2)c2cc(-c3ccc(-c4ccc(Cl)c(Cl)c4)o3)nc(-c3ccccc3)c21 ?
0.291

Which measured composite z-score value corresponds to O=C(NCCO)C1=C[C@H](Oc2ccccc2I)[C@@H](O)[C@H](N(Cc2ccco2)C(=O)Cc2ccccc2)C1 ?
0.208

Continue with the molecule presented below.
Which measured composite z-score value corresponds to CCc1cccc(NC(=O)O[C@H]2[C@H](OC(=O)Nc3ccccc3-c3ccccc3)[C@@H](OC(=O)Nc3ccccc3-c3ccccc3)[C@@H](OC)O[C@@H]2CO)c1 ?
0.79

====

target: Neurogenic locus notch homolog protein 3 (Homo sapiens) (UniProt Q9UM47); experiment: NOTCH3 binders on small-molecule microarray, primary screen, biochemical, 635/667 nm fluorescence (AID 1096); conditions: NOTCH3 binding, 635 nm fluorescence, higher = more signal
Sequence (Q9UM47 whole entry, looked up): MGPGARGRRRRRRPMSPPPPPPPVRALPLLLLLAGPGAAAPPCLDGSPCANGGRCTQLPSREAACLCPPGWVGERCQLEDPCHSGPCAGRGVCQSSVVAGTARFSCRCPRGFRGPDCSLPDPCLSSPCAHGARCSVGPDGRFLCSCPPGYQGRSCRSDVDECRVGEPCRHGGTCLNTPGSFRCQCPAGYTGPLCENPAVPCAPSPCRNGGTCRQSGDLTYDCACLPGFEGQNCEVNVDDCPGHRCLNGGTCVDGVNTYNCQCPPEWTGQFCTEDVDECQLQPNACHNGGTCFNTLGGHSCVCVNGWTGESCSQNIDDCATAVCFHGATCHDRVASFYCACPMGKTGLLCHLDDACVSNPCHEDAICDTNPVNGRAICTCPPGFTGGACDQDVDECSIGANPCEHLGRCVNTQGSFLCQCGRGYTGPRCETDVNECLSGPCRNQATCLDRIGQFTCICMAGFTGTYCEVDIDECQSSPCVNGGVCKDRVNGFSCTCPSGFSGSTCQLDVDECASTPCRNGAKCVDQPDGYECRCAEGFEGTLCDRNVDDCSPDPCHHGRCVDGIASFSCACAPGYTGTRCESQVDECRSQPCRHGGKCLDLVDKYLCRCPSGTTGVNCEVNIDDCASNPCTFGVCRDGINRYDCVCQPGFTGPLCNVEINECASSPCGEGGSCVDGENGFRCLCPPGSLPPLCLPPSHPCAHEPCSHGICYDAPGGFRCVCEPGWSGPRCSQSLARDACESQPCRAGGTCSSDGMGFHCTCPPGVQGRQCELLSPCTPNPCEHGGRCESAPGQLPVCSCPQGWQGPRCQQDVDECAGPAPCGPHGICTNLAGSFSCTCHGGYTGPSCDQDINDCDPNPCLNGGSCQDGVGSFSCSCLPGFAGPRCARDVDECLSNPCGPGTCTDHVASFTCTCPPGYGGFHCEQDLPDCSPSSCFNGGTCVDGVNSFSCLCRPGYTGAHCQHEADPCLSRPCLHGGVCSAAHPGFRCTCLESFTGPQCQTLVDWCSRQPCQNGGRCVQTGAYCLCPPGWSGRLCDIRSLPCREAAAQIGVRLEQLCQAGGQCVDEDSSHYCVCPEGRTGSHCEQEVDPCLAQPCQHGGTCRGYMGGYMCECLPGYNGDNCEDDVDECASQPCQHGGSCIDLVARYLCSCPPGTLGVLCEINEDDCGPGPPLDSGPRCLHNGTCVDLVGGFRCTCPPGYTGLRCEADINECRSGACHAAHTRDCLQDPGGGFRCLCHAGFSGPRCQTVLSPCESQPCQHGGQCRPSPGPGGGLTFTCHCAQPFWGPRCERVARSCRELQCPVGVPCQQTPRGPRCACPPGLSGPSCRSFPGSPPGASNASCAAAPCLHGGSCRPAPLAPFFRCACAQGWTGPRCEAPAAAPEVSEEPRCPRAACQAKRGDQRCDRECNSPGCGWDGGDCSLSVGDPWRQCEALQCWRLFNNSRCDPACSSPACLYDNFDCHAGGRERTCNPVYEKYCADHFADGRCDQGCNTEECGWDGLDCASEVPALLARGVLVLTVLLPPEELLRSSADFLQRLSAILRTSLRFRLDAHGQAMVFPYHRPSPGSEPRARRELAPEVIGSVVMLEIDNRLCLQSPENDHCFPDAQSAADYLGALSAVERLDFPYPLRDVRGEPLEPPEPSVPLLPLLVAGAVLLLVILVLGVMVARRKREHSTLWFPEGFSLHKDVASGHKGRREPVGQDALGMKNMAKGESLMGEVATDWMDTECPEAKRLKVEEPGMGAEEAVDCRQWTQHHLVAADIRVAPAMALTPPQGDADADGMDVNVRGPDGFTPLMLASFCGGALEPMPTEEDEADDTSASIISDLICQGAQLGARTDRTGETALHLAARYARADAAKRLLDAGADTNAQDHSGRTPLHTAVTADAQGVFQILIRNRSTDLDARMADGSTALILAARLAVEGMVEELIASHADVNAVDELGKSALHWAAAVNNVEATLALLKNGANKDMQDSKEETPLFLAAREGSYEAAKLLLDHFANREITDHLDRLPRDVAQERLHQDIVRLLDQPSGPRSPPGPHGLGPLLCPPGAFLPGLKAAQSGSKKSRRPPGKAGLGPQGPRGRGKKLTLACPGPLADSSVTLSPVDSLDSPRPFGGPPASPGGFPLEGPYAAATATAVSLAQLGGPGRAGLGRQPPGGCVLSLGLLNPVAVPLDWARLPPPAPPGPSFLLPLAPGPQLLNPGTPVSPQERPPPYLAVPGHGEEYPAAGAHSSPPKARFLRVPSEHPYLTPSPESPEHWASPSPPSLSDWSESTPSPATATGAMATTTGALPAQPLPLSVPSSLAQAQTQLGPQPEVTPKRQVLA
Binary classification by composite z-score, with 1 as an inclusive lower bound for label 1; all other cases are label 0.

API: above_or_equal(metric=composite z-score, cutoff=1) for item CCC[C@@H]1C[C@@]1(CCC)[C@@H](NS(=O)(=O)c1cccc2cccnc12)c1ccc(Cl)cc1
label 0

API: above_or_equal(metric=composite z-score, cutoff=1) for item C=CCOC(=O)[C@H]1[C@@H]2C(=O)O[C@@H](c3ccccc3)[C@@H](c3ccccc3)N2[C@@H](c2ccc(OCCOC(=O)[C@H]3C[C@H]4C(=O)N[C@@H](CCCC[N+](C)(C)C)C(=O)N4[C@H]3c3ccc(O)cc3)cc2)[C@]12C(=O)Nc1ccc(I)cc12
label 0

API: above_or_equal(metric=composite z-score, cutoff=1) for item Cc1ccc(S[C@]2(C(=O)NC3CC3)CC(=O)N(Cc3ccccc3)[C@@H]2c2ccc(CO)cc2I)cc1
label 0

API: above_or_equal(metric=composite z-score, cutoff=1) for item C[N+](C)(C)CCCCNC(=O)[C@H]1C[C@H]2C(=O)N3CCC[C@H]3C(=O)N2[C@H]1c1cccc(OCCO)c1
label 0

API: above_or_equal(metric=composite z-score, cutoff=1) for item O=C1C[C@@](C(=O)NCC(F)(F)F)(c2ccc([N+](=O)[O-])cc2)[C@@H](c2ccc(CO)cc2I)N1C1CCCCC1
label 1

API: above_or_equal(metric=composite z-score, cutoff=1) for item O=C(c1ccccc1)N1C(=O)[C@]2(COC(c3ccc(OCCCO)cc3)=N2)Cc2ccccc21
label 1

API: above_or_equal(metric=composite z-score, cutoff=1) for item CC(C)N1C(=O)[C@@]2(Cc3ccccc31)c1ccccc1C(=O)N(Cc1ccccc1Cl)[C@H]2c1ccc(CO)cc1
label 0

API: above_or_equal(metric=composite z-score, cutoff=1) for item C=C[C@H](CO)NS(=O)(=O)c1ccc(Br)cc1
label 0

API: above_or_equal(metric=composite z-score, cutoff=1) for item C=C(COC)/C(=C/C[C@@H](OC(=O)c1ccncc1)c1ccc(CO)o1)c1cc(C(=O)OC)ccc1OC
label 1

API: above_or_equal(metric=composite z-score, cutoff=1) for item C=CCOC(=O)[C@@H]1[C@H]2C(=O)O[C@H](c3ccccc3)[C@H](c3ccccc3)N2[C@H](c2ccc(OCCOC(=O)[C@H]3C[C@H]4C(=O)N5CCC[C@H]5C(=O)N4[C@H]3c3ccc(O)cc3)cc2)[C@@]12C(=O)Nc1ccc(I)cc12
label 1

API: above_or_equal(metric=composite z-score, cutoff=1) for item C=CCNC(=O)[C@@H]1[C@H]2C(=O)O[C@H](c3ccccc3)[C@H](c3ccccc3)N2[C@H](c2ccc(O)cc2)[C@@]12C(=O)Nc1ccc(C#CCNC(N)=O)cc12
label 0

API: above_or_equal(metric=composite z-score, cutoff=1) for item O=C(OCc1ccccc1)C1=CCC2c3[nH]c4ccccc4c3C(=O)C1N2S(=O)(=O)c1ccccc1[N+](=O)[O-] (stereo unspecified)
label 1

API: above_or_equal(metric=composite z-score, cutoff=1) for item C[N+](C)(C)CCCC[C@@H]1NC(=O)[C@H]2C[C@@H](C(=O)NCCCCCCNC(=O)CS)[C@@H](c3cccc(OCCO)c3)N2C1=O
label 0

API: above_or_equal(metric=composite z-score, cutoff=1) for item CCC[C@@H]1C[C@@]1(CCC)[C@@H](NC(=O)c1ccccc1)c1cccc(Cl)c1
label 1

API: above_or_equal(metric=composite z-score, cutoff=1) for item CC1CC/C=C\[C@H]2OC34C=CCN(C(C)(C)C)C(=O)[C@H]3N(C(C)CO)C(=O)[C@@H]4C2C(=O)O1 (stereo partly specified)
label 0
